Target: Gonadotropin-releasing hormone receptor (Homo sapiens, UniProt P30968)
Assay: Displacement of [125I]D-Trp6-LHRH from human GnRH receptor expressed in CHO-K1 cell membranes incubated for 1 hr by competitive binding assay
Parameter: log10(IC50). Scope: all listed entries.
quantity: log10(IC50) (log10 of the value in nM)

smiles representation: Cc1c(N2CCN(Cc3nc4ccccc4s3)CC2)c(=O)n(C[C@H](N)c2ccccc2)c(=O)n1Cc1c(F)cccc1C(F)(F)F
log10(IC50): 1.68

smiles representation: Cc1c(N2CCN(Cc3cccc([N+](=O)[O-])c3)CC2)c(=O)n(C[C@H](N)c2ccccc2O)c(=O)n1Cc1c(F)cccc1C(F)(F)F
log10(IC50): -0.77

smiles representation: Cc1c(N2CCN(Cc3cccc(C(F)(F)F)c3F)CC2)c(=O)n(C[C@H](N)c2ccccc2)c(=O)n1Cc1c(F)cccc1F
log10(IC50): 0.04

smiles representation: Cc1c(N2CCN(Cc3cccc([N+](=O)[O-])c3)CC2)c(=O)n(C[C@H](NCCCC(=O)O)c2ccccc2)c(=O)n1Cc1c(F)cccc1C(F)(F)F
log10(IC50): 0.15

smiles representation: Cc1c(N2CCN(Cc3cccc(OC(F)(F)F)c3)CC2)c(=O)n(C[C@H](N)c2ccccc2)c(=O)n1Cc1c(F)cccc1F
log10(IC50): 0.18

* * *

Biological target: Gonadotropin-releasing hormone receptor (Homo sapiens, UniProt P30968)
Test: Displacement of [125I]D-Trp6-LHRH from human GnRH receptor expressed in CHO-K1 cell membranes incubated for 1 hr by competitive binding assay
pIC50: −log10 of the molar value.
# pIC50 per entry
quantity: pIC50

molecule: Cc1c(N2CCN(Cc3cscn3)CC2)c(=O)n(C[C@H](N)c2ccccc2)c(=O)n1Cc1c(F)cccc1C(F)(F)F
quantity: pIC50
operator: =
value observed: 7.45
--
molecule: Cc1c(N2CCN(Cc3cccc(C(F)(F)F)c3)CC2)c(=O)n(C[C@H](N)c2ccccc2)c(=O)n1Cc1c(F)cccc1F
quantity: pIC50
operator: =
value observed: 9.04
--
molecule: Cc1c(N2CCN[C@@H](Cc3ccccc3)C2)c(=O)n(C[C@H](N)c2ccccc2)c(=O)n1Cc1c(F)cccc1F
quantity: pIC50
operator: <
value observed: 7.00
--
molecule: Cc1c(N2CCCCC2C)c(=O)n(C[C@H](N)c2ccccc2)c(=O)n1Cc1c(F)cccc1F (some centres not stated)
quantity: pIC50
operator: <
value observed: 7.00
--
molecule: Cc1c(N2CCN(Cc3cccc([N+](=O)[O-])c3)CC2)c(=O)n(C[C@H](N)c2ccccc2OCCCC(=O)O)c(=O)n1Cc1c(F)cccc1C(F)(F)F
quantity: pIC50
operator: =
value observed: 9.85
--
molecule: Cc1c(N2CCN(Cc3ccc(=O)[nH]c3)CC2)c(=O)n(C[C@H](N)c2ccccc2)c(=O)n1Cc1c(F)cccc1C(F)(F)F
quantity: pIC50
operator: =
value observed: 7.55
--
molecule: Cc1c(N2CCN(Cc3cccc(C(=O)NCC(=O)O)c3)CC2)c(=O)n(C[C@H](N)c2ccccc2)c(=O)n1Cc1c(F)cccc1C(F)(F)F
quantity: pIC50
operator: <
value observed: 8.00

* * *

Molecular target: UniProtKB P30968
Sequence (P30968 whole entry): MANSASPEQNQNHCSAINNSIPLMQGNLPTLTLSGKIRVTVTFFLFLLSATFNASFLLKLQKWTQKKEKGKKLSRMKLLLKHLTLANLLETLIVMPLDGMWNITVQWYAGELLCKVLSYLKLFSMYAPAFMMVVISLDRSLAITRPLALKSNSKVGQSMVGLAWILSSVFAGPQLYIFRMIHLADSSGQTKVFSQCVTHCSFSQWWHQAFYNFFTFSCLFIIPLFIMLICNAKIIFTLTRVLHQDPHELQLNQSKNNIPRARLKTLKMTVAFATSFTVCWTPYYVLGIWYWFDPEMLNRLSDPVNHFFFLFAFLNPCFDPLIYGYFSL
Assay: Displacement of [125I]D-Trp6-LHRH from human GnRH receptor expressed in CHO-K1 cell membranes incubated for 1 hr by competitive binding assay
pIC50: −log10 of the molar value.

molecule: Cc1c(N2CCN(Cc3cccc(C(F)(F)F)c3)CC2)c(=O)n(C[C@H](N)c2ccccc2)c(=O)n1Cc1c(F)cccc1C(F)(F)F
pIC50: 9.28 to 9.48

molecule: Cc1c(N2CCN(Cc3cccc(C#N)c3)CC2)c(=O)n(C[C@H](N)c2ccccc2)c(=O)n1Cc1c(F)cccc1C(F)(F)F
pIC50: 9.39

molecule: Cc1c(N2CCC(C)CC2)c(=O)n(C[C@H](N)c2ccccc2)c(=O)n1Cc1c(F)cccc1F
pIC50: 7.12

molecule: Cc1c(N2CCN(Cc3ccc(C#N)cc3)CC2)c(=O)n(C[C@H](N)c2ccccc2)c(=O)n1Cc1c(F)cccc1F
pIC50: 8.00

molecule: Cc1c(N2CCN(CC(=O)c3ccccc3Cl)CC2)c(=O)n(C[C@H](N)c2ccccc2)c(=O)n1Cc1c(F)cccc1F
pIC50: < 7.00

molecule: Cc1c(N2CCN(c3ccccc3)CC2)c(=O)n(C[C@H](N)c2ccccc2)c(=O)n1Cc1c(F)cccc1F
pIC50: < 6.00

molecule: Cc1c(N2CCN(CC3CCCCC3)CC2)c(=O)n(C[C@H](N)c2ccccc2)c(=O)n1Cc1c(F)cccc1F
pIC50: < 6.00

molecule: Cc1c(N2CCNC(CCO)C2)c(=O)n(C[C@H](N)c2ccccc2)c(=O)n1Cc1c(F)cccc1F (stereo partly drawn)
pIC50: < 7.00
